Data provenance: a melting point compilation (Tetko et al.; mined from patent text by program, amines drawn as free bases though some values may be those of a salt)

Recorded melting point for the following compounds

1) CC1C(O)CCC2CC3(CCC21)OCCO3 (centres undefined) ... 56 to 68 °C
2) CC(C)c1ccc(N(Cc2ccc(N(C)C)cc2)C(=S)C2CCCc3ccccc32)cc1 (centres undefined) ... 123 to 125 °C
3) COCC(=O)N[C@H]1CC[C@H](CCN2CCN(c3nccc4c3CCO4)CC2)CC1 ... 170 °C
4) Cc1conc1-c1nnc2c3ccccc3c(OCc3nnccc3C(C)(C)C)nn12 ... 230 to 232 °C
5) CCOc1ccc2ccc(NC(=O)c3ccc(OC)cc3)nc2n1 ... 152 °C
6) CC(C)c1cccc(C(C)C)c1N1C(=O)c2ccc3c4cccc5c(C#CCCCCO)ccc(c6ccc(c2c36)C1=O)c54 ... > 300 °C
7) COc1ccc(-n2cc(C)cc2-c2ccc(S(N)(=O)=O)cc2)cc1 ... 63 to 64 °C
8) Cn1c2c(c3ccccc31)SCCC2(C)C=O (centres undefined) ... 119 to 123 °C

# context switch: different compound, same melting point
Any idea what melting point was measured for `CCOC(=O)COc1ccc(-c2cc(O)c(SCCc3ccccc3)c(=O)o2)cc1` ?
169 to 171 °C

====

Known melting point of a selection of compounds

1. O=[N+]([O-])c1cc(Cl)c(Br)cc1Cl ... 50 to 53 °C

Need melting point of `C(=C\c1cc(/C=C/c2ccccc2-c2cccnc2)[nH]n1)/c1ccc2cc[nH]c2c1` , thanks.
248 to 255 °C

What value of measured melting point is listed for `CCOC(=O)c1[nH]c2cc(Cl)cc(Cl)c2c1NCC(=O)c1ccccc1` ?
143 to 144 °C

====

test readout: melting point

Solved cases below.
1. CCOC(=O)CC(O)Cc1ccc([N+](=O)[O-])cc1 (stereo not given) ... 71 to 72 °C
2. Cc1nc(N2CCN(Cc3ccc(F)cc3)C2=O)sc1C(=O)NCc1cocn1 ... 188 to 191 °C
3. COc1cc(COc2nn(-c3ccccc3)cc2C=O)ccc1OCc1nc(N2CCOCC2)sc1C ... 149 to 150 °C

I'd like to know its melting point. The compound in question is `CN1OCC(=Cc2cc(C(C)(C)C)c(O)c(C(C)(C)C)c2)C1=O`
194 to 196 °C

# get_value(readout='melting point', item= C=Cc1cccc(C(=O)NC(Nc2c(Nc3cccnc3)c(=O)c2=O)C(C)(C)C)c1 (stereo not given) )
209 to 210 °C

====

test readout: melting point

1) O=C(Nc1ccc(F)cc1)c1ccc(OC(F)(F)F)c(Nc2cccc(C(F)(F)F)c2)c1 ... 143 to 144 °C
2) CN(C)C(=O)C(C)(C)n1ccc(-c2ccccc2)n1 ... 99.5 to 102 °C

Dear colleague, I am looking for the recorded melting point of the following compound: `COc1ccc(C2=CCCc3cc(OC)ccc32)cc1`
100 to 102 °C

Endpoint output: melting point of `COc1ccc(C=NCC(OC)OC)cc1OC` . Value?
50 to 52 °C

Can you share its melting point? I mean this compound: CCCCCCCCCCCCCCCCCCNC(=O)SCC(COCc1ccccc1)OC (centres undefined)
40 to 41 °C

Please give the measured melting point for this compound: `Clc1cccc(CC[C@H]2CN(Cc3ccccc3)CCN2Cc2ccccc2)c1`
56 to 60 °C

Item `Cc1oc(-c2ccccc2)nc1COc1nn(Cc2ccc(Oc3ccccc3)cc2)cc1CO` has what recorded melting point?
103 to 104 °C

Consider the compound shown here: `O=[N+]([O-])c1cc(Cl)cc(C(c2cc(Cl)cc([N+](=O)[O-])c2O)C(F)(F)F)c1O` What is its recorded melting point?
135 °C

Reported melting point for `O=C(CN1CCN(c2ccc(NC(=O)c3ccccc3-c3ccc(C(F)(F)F)cc3)cc2)CC1)NCc1cccc(-c2ccccc2)c1` : what is it?
165 to 167 °C

====

test readout: melting point

Some compounds with recorded melting point:
1) O=S(=O)(COc1ccc(Cl)cc1)c1ccc(Cl)cc1 ... 114 °C
2) Cn1ccnc1C(=O)c1cc(C(C)(C)C)c(O)c(C(C)(C)C)c1 ... 172 to 174 °C
3) O=c1[nH]c2ccc(Cl)cc2n1C1CCCCC1 ... 206 to 208 °C
4) COc1ccc2c(=O)nc(-c3cccc(CCC(=O)OC(C)(C)C)n3)sc2c1 ... 134 to 135 °C
5) CCOC(=O)c1nnc(S)n1Cc1ccc(OC)cc1 ... 142 to 144 °C

Next item in the queue.
Bench note: what melting point did `CC(C)(C)n1cc(-c2ccc(S(=O)(=O)c3ccccc3)cc2)c2c(N)ncnc21` show?
222 to 224 °C

====

test readout: melting point (°C)

1. CCCc1ncc(CCCCC(=O)O)s1 ... 124

1: c1ccc(C(c2ccccc2)N2CCN(CCCn3c(C4CCCCC4)nc4ccccc43)CC2)cc1
2: O=C(N[C@H]1CC[C@H](CCN2CCN(c3nccc4c3CCO4)CC2)CC1)c1ccc(-c2ccccc2)cc1
Which has the smaller recorded melting point, 1 or 2 ? Kindly give the label for the entry you pick.
1
(1: 115 °C, 2: 232 °C)

====

This listing pairs compounds with measured melting point.

Below, each entry is followed by its recorded melting point result.
1. Cc1cc(Cl)c2cc(O)ccc2n1 ... 233 °C
2. COc1cc(NC(=O)OCCCN2CCN(c3ccc(Cl)cc3)CC2)cc(OC)c1OC ... 174 °C
3. Nc1ccc(F)c(O)c1 ... 156 to 157 °C
4. CCOC(=O)C1=CC(OC)(C(C)(C)C)N(c2ccc(Cl)cc2Cl)N1 (centres undefined) ... 130 to 133 °C
5. COc1ccc(Cc2sccc2OC2OC(COC(C)=O)C(OC(C)=O)C(OC(C)=O)C2OC(C)=O)cc1 (centres undefined) ... 116 to 118 °C
6. C=CC(=O)OCc1c(Br)c(Br)c(Br)c(COC(=O)C=C)c1Br ... 105 to 108 °C
7. CCOC(=O)c1ccc(N(CCO)C(=O)Nc2ccc(C3CCN(C(=O)C(F)(F)F)CC3)cc2)cc1 ... 105 to 108 °C
8. CC(C(=O)O)c1ccc2c(c1)Cc1cc(F)ccc1S2 (centres undefined) ... 140 to 145 °C
9. O=C(O)C=C1SC(=Nc2ccc(Cl)c(Cl)c2)N(c2ccc(Cl)c(Cl)c2)C1=O ... 221 to 222 °C
10. COc1ccc(-c2c(N(C)C(C)C)c(=O)c2=O)cc1 ... 109 to 115 °C

Look up melting point for this compound: O=P1(c2ccccc2)c2ccccc2CN1c1ccccc1 (centres undefined)
227 to 229 °C

Value lookup for melting point; key = `O=C(c1ccccc1)N1CCN(Cc2ccccc2)CCN1C(=O)c1ccccc1`
135 to 138 °C

melting point for `CC(C)Cn1c(CON2C(=O)c3ccccc3C2=O)nc2c(N)nc3ccccc3c21` ?
221 to 222 °C

Entry Cc1cc(OCc2coc(/C=C/c3ccc(S(=O)C(F)(F)F)cc3)n2)ccc1CCCCc1c[nH]nn1 (centres undefined) : reported melting point = ?
113 to 114 °C

melting point lookup needed for `O=C(O)C/C=C/CC(=O)O` , thanks.
197 to 198 °C

Given `Cc1c(-c2cn(C)c3c(-c4ccccc4)cccc23)nc2ccc(F)cc2c1C(=O)O` , state its recorded melting point.
107 to 108 °C

Sample `Cc1cc(C)c(C(=O)c2ccc(-c3ccccc3)cc2)c(C)c1` — what was its melting point?
111 to 112 °C

# input compound: Cc1nc2c(s1)C=Cc1cc(Cl)ccc1C2c1cn(C)c(=O)[nH]c1=S (centres undefined) ; wanted: its melting point
305 °C

Would you kindly share the measured melting point for `Clc1cccc(-c2nnnn2Cc2cscn2)c1Cl` ?
153 to 154 °C

Bench note: what melting point did `CC(=O)CCCCOCCCc1ccc(N2CCCC2)cc1` show?
30 to 31 °C

====

Listed compounds paired with reported melting point

1. COC(=O)COc1ccc(I)cc1 ... 69 to 70 °C
2. O=C(Nc1cccc(C(F)(F)F)c1)c1cccc2cc(Oc3cc(CO)ncn3)ccc12 ... 183 to 184 °C
3. O=P(O)(O)c1ccc2ccccc2n1 ... 200 °C
4. O=[N+]([O-])c1cnc2ccc(-c3ccccc3)cc2c1Nc1ccccc1Br ... 198 to 204 °C
5. CC1Cc2ccc(O)cc2C1(C)C (stereo unspecified) ... 66 to 67 °C
6. COc1ccc(OC)c(C2(OC)C(=O)Nc3ccc(Cl)cc32)c1 (stereo unspecified) ... 180 °C
7. C[Si](C)(C)C#Cc1c(C#N)nn(-c2c(Cl)cc(OC(F)(F)F)cc2Cl)c1N ... 152 °C
8. CCOC(=O)N1CCN(C2=Nc3ccccc3Sc3ccc(Cl)cc32)CC1 ... 96.5 to 97.5 °C

Data request, read-out melting point, for `Cc1cc(Oc2cccc(C(F)(F)F)c2)nn1C(=O)Nc1cccc([N+](=O)[O-])c1`
83 to 86 °C

Entry `O=C1CCCc2c1[nH]c1ccc(F)cc21` has what melting point?
131 °C

Fill in: melting point of `Cc1nc(C)c(Cl)c(NCc2nccc(SCCCSCCSc3ncccn3)c2C)n1` is ___
112 to 115 °C
